The values you see were collected from patent US20080058636A1.

Measured Human binding by item
- target desc: human collagen type I (acid soluble, extracted from placenta, Sigma C7774) (human) (UniProt P02452)
- Sequence (P02452 162-1218 limits assumed, chain 1 of 2): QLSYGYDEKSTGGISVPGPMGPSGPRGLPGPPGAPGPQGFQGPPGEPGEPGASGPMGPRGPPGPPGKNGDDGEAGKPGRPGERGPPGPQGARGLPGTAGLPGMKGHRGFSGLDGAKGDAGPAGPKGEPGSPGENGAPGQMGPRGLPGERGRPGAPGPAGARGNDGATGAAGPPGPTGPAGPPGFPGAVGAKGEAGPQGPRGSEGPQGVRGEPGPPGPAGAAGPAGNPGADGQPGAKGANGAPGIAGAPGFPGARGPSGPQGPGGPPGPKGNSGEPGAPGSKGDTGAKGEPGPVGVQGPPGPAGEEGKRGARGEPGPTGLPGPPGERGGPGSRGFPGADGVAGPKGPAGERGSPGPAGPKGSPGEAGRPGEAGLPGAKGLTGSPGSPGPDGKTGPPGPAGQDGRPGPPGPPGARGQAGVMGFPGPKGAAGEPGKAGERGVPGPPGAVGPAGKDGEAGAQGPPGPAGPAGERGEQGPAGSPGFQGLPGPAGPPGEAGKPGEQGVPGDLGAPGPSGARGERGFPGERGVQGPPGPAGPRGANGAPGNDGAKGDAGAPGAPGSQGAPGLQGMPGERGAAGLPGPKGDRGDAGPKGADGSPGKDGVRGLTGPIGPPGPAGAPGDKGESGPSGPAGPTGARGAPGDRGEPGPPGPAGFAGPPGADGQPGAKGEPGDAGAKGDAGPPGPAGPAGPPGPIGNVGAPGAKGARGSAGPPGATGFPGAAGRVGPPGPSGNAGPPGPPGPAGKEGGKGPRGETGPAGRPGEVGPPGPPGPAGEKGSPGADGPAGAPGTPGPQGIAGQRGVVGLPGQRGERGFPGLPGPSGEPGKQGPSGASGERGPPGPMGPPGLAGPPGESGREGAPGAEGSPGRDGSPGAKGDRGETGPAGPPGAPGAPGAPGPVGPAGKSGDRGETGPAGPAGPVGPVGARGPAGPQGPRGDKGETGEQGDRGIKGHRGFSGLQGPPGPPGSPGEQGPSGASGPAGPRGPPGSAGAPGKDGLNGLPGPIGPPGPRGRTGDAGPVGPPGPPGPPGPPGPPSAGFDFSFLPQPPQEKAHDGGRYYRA
- Sequence (P08123 80-1119 limits assumed, chain 2 of 2, further chain): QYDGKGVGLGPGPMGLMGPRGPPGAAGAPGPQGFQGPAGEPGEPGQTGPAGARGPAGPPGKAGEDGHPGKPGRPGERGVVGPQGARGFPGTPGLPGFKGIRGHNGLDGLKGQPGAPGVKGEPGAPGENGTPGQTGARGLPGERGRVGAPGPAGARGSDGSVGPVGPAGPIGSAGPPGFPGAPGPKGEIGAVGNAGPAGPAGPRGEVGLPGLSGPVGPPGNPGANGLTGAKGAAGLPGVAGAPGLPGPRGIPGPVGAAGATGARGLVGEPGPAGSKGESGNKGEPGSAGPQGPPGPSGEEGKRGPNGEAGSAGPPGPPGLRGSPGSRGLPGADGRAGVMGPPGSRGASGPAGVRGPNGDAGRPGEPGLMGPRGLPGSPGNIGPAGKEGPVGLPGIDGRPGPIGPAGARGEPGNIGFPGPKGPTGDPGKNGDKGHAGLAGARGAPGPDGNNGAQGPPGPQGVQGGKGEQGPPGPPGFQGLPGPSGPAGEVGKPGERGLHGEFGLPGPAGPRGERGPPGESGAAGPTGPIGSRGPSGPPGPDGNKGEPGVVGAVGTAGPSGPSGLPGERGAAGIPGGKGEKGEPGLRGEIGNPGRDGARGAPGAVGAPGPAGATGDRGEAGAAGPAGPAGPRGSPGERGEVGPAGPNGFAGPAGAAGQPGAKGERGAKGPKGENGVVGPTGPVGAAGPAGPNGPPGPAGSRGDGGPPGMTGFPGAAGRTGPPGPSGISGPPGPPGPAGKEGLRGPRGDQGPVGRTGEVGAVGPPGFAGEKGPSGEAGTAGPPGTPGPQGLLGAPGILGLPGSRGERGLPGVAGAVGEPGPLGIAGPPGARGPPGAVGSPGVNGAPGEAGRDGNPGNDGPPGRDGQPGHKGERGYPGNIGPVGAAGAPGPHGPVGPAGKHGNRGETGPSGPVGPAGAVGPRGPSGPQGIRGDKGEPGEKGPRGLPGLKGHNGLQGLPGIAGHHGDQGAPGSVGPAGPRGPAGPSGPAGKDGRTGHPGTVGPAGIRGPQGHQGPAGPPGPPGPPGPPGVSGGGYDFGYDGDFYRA
- assay method text: dried collagen assay, 5 uM each
The response must be a number in % with no trailing unit.

Take a look at these entries with their results.
• GKWHCYTKFPYHYCVYY [Compound ID 1011] = 94
• GKWHCTTYFPHWYCLYG [Compound ID 948] = 25
• GQWHCTYLFPHHYCLYG [Compound ID 921] = 68

Consider the binder shown here: AWHCTTLFPHHYCLYG [Compound ID 909] What is its recorded Human binding?
14

Consider the binder shown here: GQWTCSGDEYTWHCNYA [Compound ID 841] What is its recorded Human binding?
51

Consider the binder shown here: AWHCTTRFPAHYCLYG [Compound ID 937] What is its recorded Human binding?
11

Consider the binder shown here: GQWHCTTLFPNHYCLYG [Compound ID 923] What is its recorded Human binding?
28

Consider the binder shown here: GQWHCTTDYPHHYCLYG [Compound ID 895] What is its recorded Human binding?
7

Consider the binder shown here: GQWTCSGDEYTWACNYE [Compound ID 833] What is its recorded Human binding?
13

Consider the binder shown here: GQWNCTTLFPHHYCLYG [Compound ID 922] What is its recorded Human binding?
68

Consider the binder shown here: PPWHCTTLFPHHYCLYG [Compound ID 912] What is its recorded Human binding?
20

Consider the binder shown here: GKWHCYKYFPHHYCLYG [Compound ID 991] What is its recorded Human binding?
23
